Entry source: patent US20240384268A1

- targetUnderTest: human TLR7 (Homo sapiens)
- Construct: HA; host or cells: 293XL-hTLR7-HA (HEK293)
- Sequence (Q9NYK1 27-1049): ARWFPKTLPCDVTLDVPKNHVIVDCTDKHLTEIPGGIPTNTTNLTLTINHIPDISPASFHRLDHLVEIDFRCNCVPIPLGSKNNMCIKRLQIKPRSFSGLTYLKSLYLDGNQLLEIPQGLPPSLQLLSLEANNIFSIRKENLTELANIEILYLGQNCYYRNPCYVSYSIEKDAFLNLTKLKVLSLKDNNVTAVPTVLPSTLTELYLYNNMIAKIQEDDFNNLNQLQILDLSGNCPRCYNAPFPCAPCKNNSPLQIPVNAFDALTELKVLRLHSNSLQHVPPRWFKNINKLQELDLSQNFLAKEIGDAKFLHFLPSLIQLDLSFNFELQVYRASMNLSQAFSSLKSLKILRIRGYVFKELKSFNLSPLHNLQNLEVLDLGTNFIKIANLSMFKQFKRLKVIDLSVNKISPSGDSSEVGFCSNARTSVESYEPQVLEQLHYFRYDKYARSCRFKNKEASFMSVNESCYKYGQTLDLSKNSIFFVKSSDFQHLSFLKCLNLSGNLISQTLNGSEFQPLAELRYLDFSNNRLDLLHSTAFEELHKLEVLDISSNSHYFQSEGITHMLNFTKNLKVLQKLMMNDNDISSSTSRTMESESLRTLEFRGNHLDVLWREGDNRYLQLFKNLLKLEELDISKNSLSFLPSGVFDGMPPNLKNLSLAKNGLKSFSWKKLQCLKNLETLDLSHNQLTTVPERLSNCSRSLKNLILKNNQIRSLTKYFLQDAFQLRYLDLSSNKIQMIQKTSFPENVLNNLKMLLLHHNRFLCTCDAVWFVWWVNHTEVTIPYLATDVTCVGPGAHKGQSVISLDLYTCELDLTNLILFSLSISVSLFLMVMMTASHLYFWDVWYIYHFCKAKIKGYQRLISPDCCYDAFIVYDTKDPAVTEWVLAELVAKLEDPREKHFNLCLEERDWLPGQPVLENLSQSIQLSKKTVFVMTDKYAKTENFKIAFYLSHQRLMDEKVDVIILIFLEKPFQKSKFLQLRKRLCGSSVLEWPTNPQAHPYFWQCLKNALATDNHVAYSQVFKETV
- measurementDescription: HEK-TLR7 NF-κB-luciferase reporter, R848 stimulation
- Type: cell-based
- assaySetup: MOE-modified ASO at 100 nM; averaged NF-κB-Luciferase relative to R848 condition
- Description: In such examples, inhibition of TLR7 activity can be identified by observation of an overall decreased TLR7 response of the cell population, or a lower proportion of cells having TLR7-positive activity as compared to positive control condition in which cells are treated with TLR7 agonist in the absence of the oligonucleotide (or in the presence of an appropriate control inhibitory agent). […] TLR7 activity can be determined by a luciferase assay, which measures activated NF-κB by luminescence. […]
endpointName: TLR7 100 nM
# answer = number (no unit)

Below: 10 sequences and their reported TLR7 100 nM.
ATGCCATCCACTTGATAGGC (antisense; 2'-MOE modified, pattern not given here) [EGFR-2874 MOE] : 0.668
CGGAGGTCTTGGCTTCGTGG (antisense; 2'-MOE modified, pattern not given here) [MB21D1-525 MOE] : 0.505
GCGACTATACGCGCAATATG (antisense; 2'-MOE modified, pattern not given here) [NC5 2′MOE] : 0.948
AGTCGTAGTTGCTTCCTAAC (antisense; 2'-MOE modified, pattern not given here) [MB21D1-1181 MOE] : 0.494
TCCGGCCTCGGAAGCTCTCT (antisense; 2'-MOE modified, pattern not given here) [MB21D1-168 MOE] : 0.440
GTGTCTTCATCGGCCCTGCC (antisense; 2'-MOE modified, pattern not given here) [CAMSAP1-2113 MOE] : 0.371
GATGCTCCTCGGTCTCCCTT (antisense; 2'-MOE modified, pattern not given here) [CAMSAP1-1850 MOE] : 0.453
CAAGGCCCTTCGCACTTCTT (antisense; 2'-MOE modified, pattern not given here) [EGFR-1225 MOE] : 0.587
GCTGACAAAGATTCACTGGT (antisense; 2'-MOE modified, pattern not given here) [HPRT-1353 MOE] : 0.375
GAACCACGTCTGCTCTAACA (antisense; 2'-MOE modified, pattern not given here) [CAMSAP1-1635 MOE] : 0.597

Assay human TLR7 (Homo sapiens), sample TTTGCACACTTCGTACCCAA (antisense; 2'-MOE modified, pattern not given here) [CAMSAP1-4916 MOE] , TLR7 100 nM read: 0.296

Entry TGTCTTCATCGGCCCTGCCT (antisense; 2'-MOE modified, pattern not given here) [CAMSAP1-2112 MOE] , tested on human TLR7 (Homo sapiens), has a reported TLR7 100 nM of 0.396

Reported TLR7 100 nM (human TLR7 (Homo sapiens)) for entry GCGTATTATAGCCGATTAAC (antisense; 2'-MOE modified, pattern not given here) [NC1 2′MOE] is 0.565

# lookup: GCGTGTCTGGAAGCTTCCTT (antisense; 2'-MOE modified, pattern not given here) [CTNN2B-809 MOE] on human TLR7 (Homo sapiens), TLR7 100 nM = 0.415

The value of TLR7 100 nM recorded for CTGTGATCTTGACATGCTGC (antisense; 2'-MOE modified, pattern not given here) [EGFR-2790 MOE] when tested on human TLR7 (Homo sapiens) reads 0.449

Query CAATGTGATGGCCTCCCATC (antisense; 2'-MOE modified, pattern not given here) [HPRT-335 MOE] on human TLR7 (Homo sapiens); TLR7 100 nM returned: 0.451

The reported TLR7 100 nM value, human TLR7 (Homo sapiens), for TCAAAGGACTGAGGAAAGGG (antisense; 2'-MOE modified, pattern not given here) [CAMSAP1-6273 MOE] reads 0.397

* * *

- targetUnderTest: human TLR9 (Homo sapiens)
- Construct: HA; host or cells: 293XL-hTLR9-HA (HEK293)
- Sequence (Q9NR96 26-1032): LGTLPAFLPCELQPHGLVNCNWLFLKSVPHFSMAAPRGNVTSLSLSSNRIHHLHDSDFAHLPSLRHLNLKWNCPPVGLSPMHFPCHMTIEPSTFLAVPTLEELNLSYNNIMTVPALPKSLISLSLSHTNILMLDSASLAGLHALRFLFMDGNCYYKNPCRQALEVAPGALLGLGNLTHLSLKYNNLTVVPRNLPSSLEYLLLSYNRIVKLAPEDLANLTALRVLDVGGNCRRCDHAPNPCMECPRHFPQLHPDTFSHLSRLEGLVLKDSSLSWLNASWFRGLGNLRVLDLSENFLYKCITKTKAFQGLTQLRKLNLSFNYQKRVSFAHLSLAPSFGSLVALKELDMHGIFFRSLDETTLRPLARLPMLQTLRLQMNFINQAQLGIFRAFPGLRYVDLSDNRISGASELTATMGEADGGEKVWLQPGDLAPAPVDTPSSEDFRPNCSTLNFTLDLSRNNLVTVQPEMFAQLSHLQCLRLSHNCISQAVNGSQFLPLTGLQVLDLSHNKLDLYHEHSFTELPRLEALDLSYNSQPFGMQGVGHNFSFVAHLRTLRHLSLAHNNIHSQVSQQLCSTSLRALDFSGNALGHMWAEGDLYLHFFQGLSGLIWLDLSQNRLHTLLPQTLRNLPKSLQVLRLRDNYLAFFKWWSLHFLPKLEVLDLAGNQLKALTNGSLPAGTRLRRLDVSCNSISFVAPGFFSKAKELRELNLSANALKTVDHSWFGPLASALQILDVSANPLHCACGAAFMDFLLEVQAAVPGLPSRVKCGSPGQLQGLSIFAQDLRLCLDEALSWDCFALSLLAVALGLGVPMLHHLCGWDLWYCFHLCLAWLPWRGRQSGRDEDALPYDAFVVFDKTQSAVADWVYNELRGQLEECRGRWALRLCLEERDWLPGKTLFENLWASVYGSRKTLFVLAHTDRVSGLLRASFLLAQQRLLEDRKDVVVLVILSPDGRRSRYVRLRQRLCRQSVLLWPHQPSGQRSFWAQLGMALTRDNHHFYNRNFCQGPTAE
- measurementDescription: HEK-TLR9 NF-κB-luciferase reporter, ODN2006 stimulation
- Format: cell-based
- assaySetup: ASO 100 nM; relative to ODN2006 only, given as fraction
endpointName: TLR9 100 nM (averaged NF-κB-Luciferase level relative to ODN2006 condition)
// return just the number, without any unit appended

ACGTTCAGTCCTGTCC (antisense; LNA-modified, pattern not given here) [HPRT LNA-294 V1] : 0.427
GGTCTTGGCTTCGTGG (antisense; LNA-modified, pattern not given here) [MB21D1-523 LNA V1] : 0.658
ATGGCCTCCCATCTCC (antisense; LNA-modified, pattern not given here) [HPRT LNA-330 V1] : 0.511
CGGCCTCGGAAGCTCT (antisense; LNA-modified, pattern not given here) [MB21D1-168 LNA V1] : 0.218
CCAACACTTCGTGGGG (antisense; LNA-modified, pattern not given here) [HPRT LNA-668 V1] : 1.065

Lab note: GGAGGTCTTGGCTTCG (antisense; LNA-modified, pattern not given here) [MB21D1-526 LNA V1] gave TLR9 100 nM (averaged NF-κB-Luciferase level relative to ODN2006 condition) of 0.912

get_value(item= TGCACACTTCGTACCC (antisense; LNA-modified, pattern not given here) [CAMSAP1-4916 LNA V1] , readout=TLR9 100 nM (averaged NF-κB-Luciferase level relative to ODN2006 condition)) returns 0.283

get_value(item= CATCCACCACGTCGTC (antisense; LNA-modified, pattern not given here) [EGFR-3266 LNA V1] , readout=TLR9 100 nM (averaged NF-κB-Luciferase level relative to ODN2006 condition)) returns 0.722

* * *

- targetUnderTest: human TLR7 (Homo sapiens)
- Construct: HA; host or cells: 293XL-hTLR7-HA (HEK293)
- measurementDescription: HEK-TLR7 NF-κB-luciferase reporter, R848 stimulation
- Assay type: cell-based
- assaySetup: MOE-modified ASO at 100 nM; averaged NF-κB-Luciferase relative to R848 condition
endpointName: TLR7 100 nM

ATGTCCCGCCACTGGATGCT (antisense; 2'-MOE modified, pattern not given here) [EGFR-727 MOE] : 0.397
ACACTTCGTGGGGTCCTTTT (antisense; 2'-MOE modified, pattern not given here) [HPRT-663 MOE] : 0.403
GTCCACATCCTGTGGCTCGT (antisense; 2'-MOE modified, pattern not given here) [CAMSAP1-2906 MOE] : 0.299
GGTGTCCTTGCACGTGGCTT (antisense; 2'-MOE modified, pattern not given here) [EGFR-1016 MOE] : 0.358
GCGGAGGTCTTGGCTTCGTG (antisense; 2'-MOE modified, pattern not given here) [MB21D1-526 MOE] : 0.453
ATGTGATGGCCTCCCATCTC (antisense; 2'-MOE modified, pattern not given here) [HPRT-333 MOE] : 0.643

Query GGAGCTTCGAGGCCCCAGGC (MOE modified, pattern not given here) [MB21D1-616 MOE] yields TLR7 100 nM of 0.392

get_value(item= TGGGTTACGGCTCAGTATGG (antisense; 2'-MOE modified, pattern not given here) [CAMSAP1-4295 MOE] , readout=TLR7 100 nM) returns 0.427
